Target: Steroid 17-alpha-hydroxylase/17,20 lyase (Homo sapiens)
Experiment: Inhibition of CYP17 in human testicular microsomes using 17alpha-hydroxypregnenolone as substrate assessed as decrease in DHEA levels at 1 nM after 90 mins by ELISA relative to control
Parameters: species or system Testis
pIC50: −log10 of the molar value.
Metric: pIC50

{"Molecule": "CC1C[C@@H]2[C@H](CC[C@]3(C)C(c4cccnc4)CC[C@@H]23)[C@@]2(C)CCC(=O)C=C12 (some centres undefined)", "Measured target": "Steroid 17-alpha-hydroxylase/17,20 lyase (Homo sapiens)", "Reported": "≥ 8.00"}
{"Molecule": "C=C1C[C@@H]2[C@H](CC[C@]3(C)C(c4cccnc4)=CC[C@@H]23)[C@@]2(C)CCC(=O)C=C12", "Measured target": "Steroid 17-alpha-hydroxylase/17,20 lyase (Homo sapiens)", "Reported": "7.00 to 8.00"}
{"Molecule": "C=C1C[C@H]2C3=CC=C(c4cccnc4)[C@@]3(C)CC[C@@H]2[C@@]2(C)C=CC(=O)C=C12", "Measured target": "Steroid 17-alpha-hydroxylase/17,20 lyase (Homo sapiens)", "Reported": "≥ 8.00"}
{"Molecule": "C[C@]12CCNC(=O)C=C1C1(CC1)C[C@@H]1[C@@H]2CC[C@]2(C)C(c3cccnc3)=CC[C@@H]12", "Measured target": "Steroid 17-alpha-hydroxylase/17,20 lyase (Homo sapiens)", "Reported": "≥ 8.00"}

* * *

Target: Steroid 17-alpha-hydroxylase/17,20 lyase (Homo sapiens, UniProt P05093)
Sequence (P05093 whole entry): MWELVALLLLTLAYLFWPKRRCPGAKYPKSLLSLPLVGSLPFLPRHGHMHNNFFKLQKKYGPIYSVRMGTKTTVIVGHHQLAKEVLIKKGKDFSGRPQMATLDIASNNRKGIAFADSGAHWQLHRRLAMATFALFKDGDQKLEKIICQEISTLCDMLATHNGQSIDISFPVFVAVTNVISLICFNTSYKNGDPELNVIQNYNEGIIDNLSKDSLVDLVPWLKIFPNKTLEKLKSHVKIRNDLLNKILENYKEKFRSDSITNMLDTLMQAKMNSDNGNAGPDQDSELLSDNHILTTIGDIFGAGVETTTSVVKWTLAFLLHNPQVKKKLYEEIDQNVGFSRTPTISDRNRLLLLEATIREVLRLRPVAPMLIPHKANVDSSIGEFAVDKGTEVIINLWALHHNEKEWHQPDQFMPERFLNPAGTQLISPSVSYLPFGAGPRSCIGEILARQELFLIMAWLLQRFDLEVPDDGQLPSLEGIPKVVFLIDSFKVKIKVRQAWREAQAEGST
Test: Inhibition of CYP17 in human testicular microsomes using 17alpha-hydroxypregnenolone as substrate assessed as decrease in DHEA levels at 1 nM after 90 mins by ELISA relative to control
Set-up: species or system Testis
pIC50: −log10 of the molar value.
Let's look at some molecules and their measured pIC50.
Metric: pIC50

{"Molecule": "C[C@]12CCC(=O)C=C1C=C[C@@H]1[C@@H]2CC[C@]2(C)C(c3cccnc3)=CC[C@@H]12", "Reported": "< 7.00"}
{"Molecule": "CC1C[C@H]2C3=CC=C(c4cccnc4)[C@@]3(C)CC[C@@H]2[C@@]2(C)C=CC(=O)C=C12 (some centres not stated)", "Reported": "≥ 8.00"}
{"Molecule": "CC1C[C@@H]2[C@H](CC[C@]3(C)C(c4cncc(F)c4)=CC[C@@H]23)[C@@]2(C)C=CC(=O)C=C12 (some centres not stated)", "Reported": "7.00 to 8.00"}
{"Molecule": "C[C@]12CC[C@H]3[C@@H](CCC4=CC(=O)CC[C@@]43C)C1=CC=C2c1cncnc1", "Reported": "7.00 to 8.00"}
{"Molecule": "CC1C[C@H]2C3=CC=C(c4cccnc4)[C@@]3(C)CC[C@@H]2[C@@]2(C)CCN(C)C(=O)C=C12 (some centres not stated)", "Reported": "7.00 to 8.00"}
{"Molecule": "C[C@]12CCC(=O)C=C1C1(CC1)C[C@@H]1[C@@H]2CC[C@]2(C)C(c3cccnc3)=CC[C@@H]12", "Reported": "≥ 8.00"}
{"Molecule": "C[C@]12CC[C@H]3[C@@H](CCC4=CC(=O)C=C[C@@]43C)C1=CC=C2c1cccnc1", "Reported": "7.00 to 8.00"}

* * *

Measured inhibition at 20 h accompanies every entry in the list below.
Molecular target: CYP21 (steroid 21-hydroxylase) (Homo sapiens, UniProt P08686)
Sequence (P08686 whole entry): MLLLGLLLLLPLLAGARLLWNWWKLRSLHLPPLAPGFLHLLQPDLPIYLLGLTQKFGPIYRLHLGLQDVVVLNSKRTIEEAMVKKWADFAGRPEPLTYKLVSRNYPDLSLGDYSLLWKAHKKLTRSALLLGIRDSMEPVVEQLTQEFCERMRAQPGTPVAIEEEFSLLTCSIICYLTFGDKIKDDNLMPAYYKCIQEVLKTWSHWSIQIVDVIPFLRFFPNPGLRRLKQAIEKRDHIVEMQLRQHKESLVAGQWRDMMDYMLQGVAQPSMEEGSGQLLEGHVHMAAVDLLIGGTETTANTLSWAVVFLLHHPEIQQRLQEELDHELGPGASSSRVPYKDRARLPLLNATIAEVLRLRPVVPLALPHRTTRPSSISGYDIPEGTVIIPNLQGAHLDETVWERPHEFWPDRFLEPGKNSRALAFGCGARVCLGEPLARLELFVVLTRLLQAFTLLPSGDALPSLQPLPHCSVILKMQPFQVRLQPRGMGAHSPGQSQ
Test: Inhibition of human CYP21 transfected in HEK293 cells assessed as decrease in conversion of progesterone to 11-deoxycorticosterone preincubated for 5 hrs followed by progesterone addition measured after 20 hrs by ELISA
Type: cell-based
Parameters: concentration or dose not given beside the values
Settings: HEK293 cells transfected with human CYP21, probe progesterone
Metric: inhibition at 20 h

{"Molecule": "C[C@]12CC[C@@H](NC(=O)C3CCC3)CC1=CC[C@@H]1[C@@H]2CC[C@]2(C)C(c3cccnc3)=CC[C@@H]12", "Reported": "≥ 50%"}
{"Molecule": "CC1C[C@H]2C3=CC=C(c4cncc(F)c4)[C@@]3(C)CC[C@@H]2[C@@]2(C)CCC(=O)C=C12 (stereo not given in full)", "Reported": "10 to 50%"}
{"Molecule": "CC1C(O)CC[C@@]2(C)C1CC[C@@H]1[C@@H]2CC[C@]2(C)C(c3cncc(C(F)F)c3)=CC[C@@H]12 (stereo not given in full)", "Reported": "< 10%"}
{"Molecule": "CC1C[C@H]2C3=CC=C(c4cncc(C(F)F)c4)[C@@]3(C)CC[C@@H]2[C@@]2(C)CCNC(=O)C=C12 (stereo not given in full)", "Reported": "< 10%"}
{"Molecule": "C[C@]12CCNC(=O)CC1CCC1C2CC[C@]2(C)C(c3cncc(C(F)F)c3)=CCC12 (stereo not given in full)", "Reported": "≥ 50%"}
{"Molecule": "C[C@]12CC[C@H](O)CC1=CC[C@@H]1[C@@H]2CC[C@]2(C)C(c3ccc(F)nc3)=CC[C@@H]12", "Reported": "10 to 50%"}
{"Molecule": "CCC(=O)O[C@H]1CC[C@@]2(C)C(=CC[C@H]3C4=CC=C(c5cccnc5)[C@@]4(C)CC[C@@H]32)C1", "Reported": "10 to 50%"}
{"Molecule": "CO/N=C1/C=C2CC[C@H]3C4=CC=C(c5cccnc5)[C@@]4(C)CC[C@@H]3[C@@]2(C)CC1", "Reported": "10 to 50%"}
{"Molecule": "CN1C(=O)CC[C@@]2(C)C1=CC[C@@H]1[C@@H]2CC[C@]2(C)C(c3cncc(F)c3)=CC[C@@H]12", "Reported": "10 to 50%"}
{"Molecule": "CN1CC[C@@]2(C)C(=CC1=O)CC[C@H]1C3=CC=C(c4cnccn4)[C@@]3(C)CC[C@@H]12", "Reported": "10 to 50%"}
